Would you mind telling me the reported viability at 72 h, 10 µM of each entry?
assay.name: Cytotoxicity against human KBV cells assessed as cell survival at 10 uM after 72 hrs by MTT assay relative to control
Assay type: cell-based
condition.parameters: read-out: Survival
Numbers only, in %.

Worked cases, viability at 72 h, 10 µM given:
• CC(C)(O)[C@@H]1CC[C@@](C)([C@H]2CC[C@]3(C)[C@@H]2[C@H](O)C[C@@H]2[C@@]4(C)CC[C@H](NC(=O)CCCCCCCN)C(C)(C)[C@@H]4CC[C@]23C)O1 = 118
• CC(C)(O)[C@@H]1CC[C@@](C)([C@H]2CC[C@]3(C)[C@@H]2[C@H](O)C[C@@H]2[C@@]4(C)CC[C@H](NC(=O)c5ccccc5O)C(C)(C)[C@@H]4CC[C@]23C)O1 = 96
• CCCC(=O)N[C@H]1CC[C@]2(C)[C@H]3C[C@@H](O)[C@@H]4[C@@H]([C@]5(C)CC[C@H](C(C)(C)O)O5)CC[C@@]4(C)[C@]3(C)CC[C@H]2C1(C)C = 103
• CC(C)(C)OC(=O)NCCCCCC(=O)N[C@H]1CC[C@]2(C)[C@H]3C[C@@H](O)[C@@H]4[C@@H]([C@]5(C)CC[C@@H](C(C)(C)O)O5)CC[C@@]4(C)[C@]3(C)CC[C@H]2C1(C)C = 79

Proceeding to the next molecule to report its viability at 72 h, 10 µM.
Given the entry `CC(C)(O)[C@H]1CC[C@@](C)([C@H]2CC[C@]3(C)[C@@H]2[C@H](O)C[C@@H]2[C@@]4(C)CC[C@H](NC(=O)CCCCCN)C(C)(C)[C@@H]4CC[C@]23C)O1` , report its measured viability at 72 h, 10 µM. 86

* * *

assayed.target: ATP-dependent translocase ABCB1 (Homo sapiens)
Sequence (P08183 whole entry): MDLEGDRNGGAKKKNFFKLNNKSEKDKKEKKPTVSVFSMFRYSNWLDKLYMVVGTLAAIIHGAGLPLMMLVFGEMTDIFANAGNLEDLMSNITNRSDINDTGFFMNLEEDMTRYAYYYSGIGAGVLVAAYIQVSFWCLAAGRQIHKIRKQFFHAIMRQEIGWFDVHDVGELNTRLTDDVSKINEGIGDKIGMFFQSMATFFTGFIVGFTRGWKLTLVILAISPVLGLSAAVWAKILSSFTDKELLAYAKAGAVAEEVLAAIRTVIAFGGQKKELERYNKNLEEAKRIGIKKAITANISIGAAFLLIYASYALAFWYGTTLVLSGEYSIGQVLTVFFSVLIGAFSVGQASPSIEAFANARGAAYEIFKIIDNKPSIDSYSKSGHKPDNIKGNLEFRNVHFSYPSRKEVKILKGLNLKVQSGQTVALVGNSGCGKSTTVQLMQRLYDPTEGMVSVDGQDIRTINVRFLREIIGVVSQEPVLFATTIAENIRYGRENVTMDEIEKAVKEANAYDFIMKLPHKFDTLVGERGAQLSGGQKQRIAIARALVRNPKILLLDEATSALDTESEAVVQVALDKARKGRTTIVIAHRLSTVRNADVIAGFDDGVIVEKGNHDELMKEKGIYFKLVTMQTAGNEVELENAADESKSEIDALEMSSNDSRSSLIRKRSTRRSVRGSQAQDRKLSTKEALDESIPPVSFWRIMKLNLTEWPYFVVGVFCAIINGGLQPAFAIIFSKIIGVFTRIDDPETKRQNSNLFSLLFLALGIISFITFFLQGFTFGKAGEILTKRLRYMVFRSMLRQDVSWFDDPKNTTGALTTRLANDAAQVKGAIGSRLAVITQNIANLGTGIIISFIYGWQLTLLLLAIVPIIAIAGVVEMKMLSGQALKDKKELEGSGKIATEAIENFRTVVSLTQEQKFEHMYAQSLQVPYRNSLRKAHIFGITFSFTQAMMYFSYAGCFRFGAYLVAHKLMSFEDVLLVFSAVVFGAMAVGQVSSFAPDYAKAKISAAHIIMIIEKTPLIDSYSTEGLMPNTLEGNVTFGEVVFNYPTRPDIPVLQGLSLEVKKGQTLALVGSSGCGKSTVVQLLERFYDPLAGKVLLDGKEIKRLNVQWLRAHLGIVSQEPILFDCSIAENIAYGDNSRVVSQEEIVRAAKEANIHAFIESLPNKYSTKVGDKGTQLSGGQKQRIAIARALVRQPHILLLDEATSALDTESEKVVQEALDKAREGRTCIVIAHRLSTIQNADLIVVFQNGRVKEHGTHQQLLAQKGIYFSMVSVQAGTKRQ
assay.name: Reversal of P-gp-mediated multidrug resistance in human KBV cells assessed as potentiation of paclitaxel-induced cytotoxicity by measuring cell survival at 5 uM after 72 hrs by MTT assay (reference value: 104 +/- 8%)
Type: cell-based
Would you kindly list Survival for each of these compounds?
One number for each entry, in %.

Worked examples, 5 compounds total:
• CCCCCC(=O)N[C@H]1CC[C@]2(C)[C@H]3C[C@@H](O)[C@@H]4[C@@H]([C@]5(C)CC[C@H](C(C)(C)O)O5)CC[C@@]4(C)[C@]3(C)CC[C@H]2C1(C)C = 69
• CC(C)(C)OC(=O)NCC(=O)N[C@H]1CC[C@]2(C)[C@H]3C[C@@H](O)[C@@H]4[C@@H]([C@]5(C)CC[C@@H](C(C)(C)O)O5)CC[C@@]4(C)[C@]3(C)CC[C@H]2C1(C)C = 61
• CC(C)(C)OC(=O)NCCCCCCCC(=O)N[C@H]1CC[C@]2(C)[C@H]3C[C@@H](O)[C@@H]4[C@@H]([C@]5(C)CC[C@H](C(C)(C)O)O5)CC[C@@]4(C)[C@]3(C)CC[C@H]2C1(C)C = 54
• CC(C)(C)OC(=O)NCCCCCCCC(=O)N[C@H]1CC[C@]2(C)[C@H]3C[C@@H](O)[C@@H]4[C@@H]([C@]5(C)CC[C@@H](C(C)(C)O)O5)CC[C@@]4(C)[C@]3(C)CC[C@H]2C1(C)C = 54
• CC(C)(C)OC(=O)NCCCCCC(=O)N[C@H]1CC[C@]2(C)[C@H]3C[C@@H](O)[C@@H]4[C@@H]([C@]5(C)CC[C@@H](C(C)(C)O)O5)CC[C@@]4(C)[C@]3(C)CC[C@H]2C1(C)C = 65

Hi, could you look up Survival for each item in my list?
1. CC(C)(O)[C@H]1CC[C@@](C)([C@H]2CC[C@]3(C)[C@@H]2[C@H](O)C[C@@H]2[C@@]4(C)CC[C@H](NC(=O)CCCN)C(C)(C)[C@@H]4CC[C@]23C)O1
2. CCCCCC(=O)N[C@H]1CC[C@]2(C)[C@H]3C[C@@H](O)[C@@H]4[C@@H]([C@]5(C)CC[C@@H](C(C)(C)O)O5)CC[C@@]4(C)[C@]3(C)CC[C@H]2C1(C)C
3. CC(C)(C)OC(=O)NCCCC(=O)N[C@H]1CC[C@]2(C)[C@H]3C[C@@H](O)[C@@H]4[C@@H]([C@]5(C)CC[C@@H](C(C)(C)O)O5)CC[C@@]4(C)[C@]3(C)CC[C@H]2C1(C)C
4. CC(C)(O)[C@@H]1CC[C@@](C)([C@H]2CC[C@]3(C)[C@@H]2[C@H](O)C[C@@H]2[C@@]4(C)CC[C@H](NC(=O)CN)C(C)(C)[C@@H]4CC[C@]23C)O1

100
78
90
98

* * *

assay.name: Cytotoxicity against human KBV cells assessed as cell survival at 10 uM after 72 hrs by MTT assay relative to control
Assay type: cell-based
condition.parameters: read-out: Survival
Assign viability at 72 h, 10 µM to each entry below.
One number for each entry, in %.

In the examples that follow, each entry is paired with its recorded viability at 72 h, 10 µM.
- CCCCCC(=O)N[C@H]1CC[C@]2(C)[C@H]3C[C@@H](O)[C@@H]4[C@@H]([C@]5(C)CC[C@H](C(C)(C)O)O5)CC[C@@]4(C)[C@]3(C)CC[C@H]2C1(C)C: 101
- CC(C)(O)[C@@H]1CC[C@@](C)([C@H]2CC[C@]3(C)[C@@H]2[C@H](O)C[C@@H]2[C@@]4(C)CC[C@H](NC(=O)CCCCCN)C(C)(C)[C@@H]4CC[C@]23C)O1: 79

# batch: return viability at 72 h, 10 µM for each of the 3 compounds below
1. CC(C)(O)[C@@H]1CC[C@@](C)([C@H]2CC[C@]3(C)[C@@H]2[C@H](O)C[C@@H]2[C@@]4(C)CC[C@H](NC(=O)CCCN)C(C)(C)[C@@H]4CC[C@]23C)O1
2. CC(C)(C)OC(=O)NCCCC(=O)N[C@H]1CC[C@]2(C)[C@H]3C[C@@H](O)[C@@H]4[C@@H]([C@]5(C)CC[C@@H](C(C)(C)O)O5)CC[C@@]4(C)[C@]3(C)CC[C@H]2C1(C)C
3. CC(C)(O)[C@H]1CC[C@@](C)([C@H]2CC[C@]3(C)[C@@H]2[C@H](O)C[C@@H]2[C@@]4(C)CC[C@H](NC(=O)c5ccccc5O)C(C)(C)[C@@H]4CC[C@]23C)O1

1: 105; 2: 94; 3: 100

* * *

assayed.target: UniProtKB P08183
assay.name: Reversal of P-gp-mediated multidrug resistance in human KBV cells assessed as potentiation of paclitaxel-induced cytotoxicity by measuring cell survival at 10 uM after 72 hrs by MTT assay (reference value: 104 +/- 8%)
Type: cell-based
assay.readout: Survival (%)
Numbers only, in %.

• COc1ccc(CCN(C)CCCC(C#N)(c2ccc(OC)c(OC)c2)C(C)C)cc1OC (centres undefined) = 43
• CC(C)(O)[C@H]1CC[C@@](C)([C@H]2CC[C@]3(C)[C@@H]2[C@H](O)C[C@@H]2[C@@]4(C)CC[C@H](NC(=O)CCCCCN)C(C)(C)[C@@H]4CC[C@]23C)O1 = 91
• CC(C)(O)[C@@H]1CC[C@@](C)([C@H]2CC[C@]3(C)[C@@H]2[C@H](O)C[C@@H]2[C@@]4(C)CC[C@H](NC(=O)c5ccccc5O)C(C)(C)[C@@H]4CC[C@]23C)O1 = 36

Now for another entry.
Consider the compound `CC(C)(C)OC(=O)NCCCCCC(=O)N[C@H]1CC[C@]2(C)[C@H]3C[C@@H](O)[C@@H]4[C@@H]([C@]5(C)CC[C@@H](C(C)(C)O)O5)CC[C@@]4(C)[C@]3(C)CC[C@H]2C1(C)C` and give its measured Survival. 40

* * *

assay.name: Cytotoxicity against human KBV cells assessed as cell survival at 10 uM after 72 hrs by MTT assay relative to control
Format: cell-based
condition.parameters: read-out: Survival
Consider the following compounds; for each one, report its viability at 72 h, 10 µM.
Answers are plain numbers, in %.

* CCCCCC(=O)N[C@H]1CC[C@]2(C)[C@H]3C[C@@H](O)[C@@H]4[C@@H]([C@]5(C)CC[C@@H](C(C)(C)O)O5)CC[C@@]4(C)[C@]3(C)CC[C@H]2C1(C)C | 98

Dear colleague, could you send me viability at 72 h, 10 µM for each of the items below? Thanks.
1. CC(C)(C)OC(=O)NCC(=O)N[C@H]1CC[C@]2(C)[C@H]3C[C@@H](O)[C@@H]4[C@@H]([C@]5(C)CC[C@H](C(C)(C)O)O5)CC[C@@]4(C)[C@]3(C)CC[C@H]2C1(C)C
2. CC(C)(O)[C@@H]1CC[C@@](C)([C@H]2CC[C@]3(C)[C@@H]2[C@H](O)C[C@@H]2[C@@]4(C)CC[C@H](NC(=O)c5cccnc5)C(C)(C)[C@@H]4CC[C@]23C)O1
3. CC(C)(O)[C@@H]1CC[C@@](C)([C@H]2CC[C@]3(C)[C@@H]2[C@H](O)C[C@@H]2[C@@]4(C)CC[C@H](N)C(C)(C)[C@@H]4CC[C@]23C)O1

1. 95
2. 91
3. 91
